TESTED_TARGET: Human Full Length PARG (Homo sapiens (Human))
METHOD_SUMMARY: PARG enzyme assay (TR-FRET)
Type: biochemical
TEST_SETTINGS: read-out: PARG Biochem IC50 Geomean
Property: IC50; scope: individual compounds

>  <COMPOUND>
Cn1c(=O)n(Cc2ccncc2)c(=O)c2cc(S(=O)(=O)NC3(C)CC3)ccc21 [Example 53]

>  <TESTED_TARGET>
Human Full Length PARG (Homo sapiens (Human))

>  <IC50 / nM>
7980

$$$$
>  <COMPOUND>
Cc1nc(C)c(Cn2c(=O)n(C)c(=O)c3cc(S(=O)(=O)NC4CC4)ccc32)s1 [Example 201]

>  <TESTED_TARGET>
Human Full Length PARG (Homo sapiens (Human))

>  <IC50 / nM>
190

$$$$
>  <COMPOUND>
Cc1cc(Cn2c(=O)c3cc(S(=O)(=O)NC4(C)CC4)ccc3n(CCO)c2=O)on1 [Example 337]

>  <TESTED_TARGET>
Human Full Length PARG (Homo sapiens (Human))

>  <IC50 / nM>
417

$$$$
>  <COMPOUND>
Cc1ccccc1Cn1c(=O)n(C)c(=O)c2cc(S(=O)(=O)NC3(C)CC3)ccc21 [Example 56]

>  <TESTED_TARGET>
Human Full Length PARG (Homo sapiens (Human))

>  <IC50 / nM>
3340

$$$$
>  <COMPOUND>
Cn1cncc1Cn1c(=O)c2cc(S(=O)(=O)NC3(C)CC3)ccc2n(C)c1=O [Example 154]

>  <TESTED_TARGET>
Human Full Length PARG (Homo sapiens (Human))

>  <IC50 / nM>
3310

$$$$
>  <COMPOUND>
Cn1cc(Cn2c(=O)c3cc(S(=O)(=O)NC4(C)CC4)c(F)cc3n(CC3CCOC3)c2=O)cn1 (centres unmarked) [Example 395]

>  <TESTED_TARGET>
Human Full Length PARG (Homo sapiens (Human))

>  <IC50 / nM>
60

$$$$
>  <COMPOUND>
Cc1cc(Cn2nc(C(=O)N(C)C)c3ccc(S(=O)(=O)NC4(C)CC4)cc3c2=O)on1 [Example 326]

>  <TESTED_TARGET>
Human Full Length PARG (Homo sapiens (Human))

>  <IC50 / nM>
8630

$$$$
>  <COMPOUND>
COc1cccc(Cn2c(=O)n(Cc3c(C)noc3C)c(=O)c3cc(S(=O)(=O)NC4(C)CC4)ccc32)c1 [Example 169]

>  <TESTED_TARGET>
Human Full Length PARG (Homo sapiens (Human))

>  <IC50 / nM>
294

$$$$

* * *

TESTED_TARGET: Human Full Length PARG (Homo sapiens (Human))
METHOD_SUMMARY: PARG enzyme assay (TR-FRET)
Assay type: biochemical
TEST_SETTINGS: read-out: PARG Biochem IC50
Mark met for IC50 under 300 nM, not met if at or over.

>  <SMILES_DATA>
CCCCn1c(=O)n(Cc2cnn(C)c2)c(=O)c2cc(S(=O)(=O)NC3(CF)CC3)ccc21

>  <ASSIGNED_CLASS>
met

$$$$
>  <SMILES_DATA>
CC(C)n1cc(Cn2c(=O)c3cc(S(=O)(=O)NC4(C)CC4)ccc3n(C)c2=O)cn1

>  <ASSIGNED_CLASS>
not met

$$$$
>  <SMILES_DATA>
Cc1cc(Cn2c(=O)c3cc(S(=O)(=O)NC4(C)CC4)ccc3n(CC3CCC(F)(F)CC3)c2=O)on1

>  <ASSIGNED_CLASS>
met

$$$$
>  <SMILES_DATA>
Cc1cc(Cn2c(=O)n(Cc3cnn(C)c3)c(=O)c3cc(S(=O)(=O)NC4(CF)CC4)ccc32)sn1

>  <ASSIGNED_CLASS>
met

$$$$
>  <SMILES_DATA>
Cc1cc(Cn2c(=O)c3cc(S(=O)(=O)NC4(CF)CC4)ccc3n(Cc3nnc(C)o3)c2=O)on1

>  <ASSIGNED_CLASS>
not met

$$$$
>  <SMILES_DATA>
Cn1cc(Cn2c(=O)c3cc(S(=O)(=O)NC4(C)CC4)ccc3n(C(F)F)c2=O)cn1

>  <ASSIGNED_CLASS>
not met

$$$$
>  <SMILES_DATA>
Cc1cc(Cn2c(=O)c3cc(S(=O)(=O)NC4(CF)CC4)ccc3n(Cc3ncnn3C)c2=O)on1

>  <ASSIGNED_CLASS>
not met

$$$$

* * *

TESTED_TARGET: Human Full Length PARG (Homo sapiens (Human), UniProt Q86W56)
Sequence (Q86W56 whole entry): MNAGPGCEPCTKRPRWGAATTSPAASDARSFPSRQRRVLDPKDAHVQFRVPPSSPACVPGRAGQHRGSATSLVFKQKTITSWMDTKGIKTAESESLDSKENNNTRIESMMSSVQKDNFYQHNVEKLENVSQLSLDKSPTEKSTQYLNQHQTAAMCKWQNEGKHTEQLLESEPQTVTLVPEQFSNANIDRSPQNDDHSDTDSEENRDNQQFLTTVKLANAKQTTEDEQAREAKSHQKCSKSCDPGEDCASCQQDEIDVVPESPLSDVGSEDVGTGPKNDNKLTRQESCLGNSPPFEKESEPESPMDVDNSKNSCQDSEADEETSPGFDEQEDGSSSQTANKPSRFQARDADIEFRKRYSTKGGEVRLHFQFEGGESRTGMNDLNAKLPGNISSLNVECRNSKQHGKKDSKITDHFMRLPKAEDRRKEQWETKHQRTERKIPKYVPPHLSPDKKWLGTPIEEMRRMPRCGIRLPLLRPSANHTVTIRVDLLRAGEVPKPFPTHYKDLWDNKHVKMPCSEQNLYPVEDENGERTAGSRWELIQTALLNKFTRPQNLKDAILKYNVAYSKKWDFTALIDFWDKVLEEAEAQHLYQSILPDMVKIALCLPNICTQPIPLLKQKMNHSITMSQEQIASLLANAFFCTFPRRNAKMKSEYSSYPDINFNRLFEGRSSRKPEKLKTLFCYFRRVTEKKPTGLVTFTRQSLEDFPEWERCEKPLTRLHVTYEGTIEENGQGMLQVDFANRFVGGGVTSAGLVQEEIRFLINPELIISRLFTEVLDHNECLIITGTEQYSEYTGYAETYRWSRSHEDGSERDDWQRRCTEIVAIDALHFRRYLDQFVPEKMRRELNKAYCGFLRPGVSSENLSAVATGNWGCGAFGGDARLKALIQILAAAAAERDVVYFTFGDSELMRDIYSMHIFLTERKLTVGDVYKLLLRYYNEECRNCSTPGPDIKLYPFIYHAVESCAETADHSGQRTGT
METHOD_SUMMARY: PARG enzyme assay (TR-FRET)
Format: biochemical
TEST_SETTINGS: read-out: PARG Biochem IC50 Geomean

>  <COMPOUND>
Cn1c(=O)c2cc(S(=O)(=O)NC3(C)CC3)ccc2n(CC2(C)COC2)c1=O

>  <IC50, nM>
2450

$$$$
>  <COMPOUND>
Cn1c(=O)c2cc(S(=O)(=O)NC3(C)CC3)ccc2n(Cc2nc3ccccc3[nH]2)c1=O

>  <IC50, nM>
1050

$$$$
>  <COMPOUND>
Cn1cc(Cn2c(=O)c3cc(S(=O)(=O)NC4(C)CC4)ccc3n(CCCOC(F)(F)F)c2=O)cn1

>  <IC50, nM>
256

$$$$
>  <COMPOUND>
Cc1cc(Cn2c(=O)c3cc(S(=O)(=O)NC4(C)CC4)ccc3n(CC(F)F)c2=O)on1

>  <IC50, nM>
331

$$$$
>  <COMPOUND>
CCn1c(=O)n(Cc2cnn(C)c2)c(=O)c2cc(S(=O)(=O)NC3(C#N)CC3)ccc21

>  <IC50, nM>
210

$$$$
>  <COMPOUND>
Cc1cc(Cn2c(=O)c3cc(S(=O)(=O)NC4(C)CC4)ccc3n(CC3CC3(F)F)c2=O)on1 (centres unmarked)

>  <IC50, nM>
408

$$$$
>  <COMPOUND>
Cn1c(=O)c2cc(S(=O)(=O)NC3(C)CC3)c(F)cc2n(C)c1=O

>  <IC50, nM>
1440

$$$$
>  <COMPOUND>
Cc1cc(Cn2c(=O)c3cc(S(=O)(=O)NC4(C)CC4)ccc3n(CCN3CCOCC3)c2=O)on1

>  <IC50, nM>
255

$$$$
>  <COMPOUND>
CCOC(=O)Cn1c(=O)n(Cc2cc(C)no2)c(=O)c2cc(S(=O)(=O)NC3(C)CC3)ccc21

>  <IC50, nM>
356

$$$$
>  <COMPOUND>
Cn1cc(Cn2c(=O)c3cc(S(=O)(=O)NC4(C)CC4)ccc3n(CC3CCOCC3)c2=O)cn1

>  <IC50, nM>
57

$$$$
>  <COMPOUND>
Cc1cc(Cn2nc(CC3CCOCC3)c3ccc(S(=O)(=O)NC4(C)CC4)cc3c2=O)on1

>  <IC50, nM>
274

$$$$
>  <COMPOUND>
Cc1noc(C)c1Cn1c(=O)c2cc(S(=O)(=O)NC3(C)CC3)ccc2n(C)c1=O

>  <IC50, nM>
616

$$$$
>  <COMPOUND>
Cc1ncc(Cn2c(=O)n(C)c(=O)c3cc(S(=O)(=O)NC4(C)CC4)ccc32)s1

>  <IC50, nM>
240

$$$$
>  <COMPOUND>
CCOc1nn(Cc2cc(C)no2)c(=O)c2cc(S(=O)(=O)NC3(C)CC3)ccc12

>  <IC50, nM>
737

$$$$
>  <COMPOUND>
Cn1cc(Cn2c(=O)c3cc(S(=O)(=O)NC4(C#N)CC4)ccc3n(C)c2=O)cn1

>  <IC50, nM>
491

$$$$
>  <COMPOUND>
CN(C)CCn1c(=O)n(Cc2cnn(C)c2)c(=O)c2cc(S(=O)(=O)NC3(C)CC3)ccc21

>  <IC50, nM>
224

$$$$
>  <COMPOUND>
Cn1c(=O)c2cc(S(=O)(=O)NC3(C)CC3)cc(F)c2n(C)c1=O

>  <IC50, nM>
7490

$$$$
>  <COMPOUND>
Cn1cc(Cn2c(=O)[nH]c3cc(F)c(S(=O)(=O)NC4(C#N)CC4)cc3c2=O)cn1

>  <IC50, nM>
452

$$$$
>  <COMPOUND>
CSCCn1c(=O)n(Cc2cnn(C)c2)c(=O)c2cc(S(=O)(=O)NC3(C)CC3)ccc21

>  <IC50, nM>
160

$$$$
>  <COMPOUND>
Cc1cc(Cn2c(=O)c3cc(S(=O)(=O)NC4(C)CC4)ccc3n(CC3CCSCC3)c2=O)on1

>  <IC50, nM>
126

$$$$
>  <COMPOUND>
Cc1cc(Cn2c(=O)c3cc(S(=O)(=O)NC4(C)CC4)ccc3n(CCN3CCCCC3)c2=O)on1

>  <IC50, nM>
526

$$$$
>  <COMPOUND>
Cn1c(=O)c2cc(S(=O)(=O)NC3(C)CC3)ccc2n(CC(=O)Nc2ccccc2)c1=O

>  <IC50, nM>
4130

$$$$
>  <COMPOUND>
Cn1cc(Cn2c(=O)c3cc(S(=O)(=O)NC4(C)CC4)c(F)cc3n(C)c2=O)cn1

>  <IC50, nM>
341

$$$$
>  <COMPOUND>
Cn1c(=O)c2cc(S(=O)(=O)NC3(C)CC3)ccc2n(Cc2ccccc2Cl)c1=O

>  <IC50, nM>
1270

$$$$
>  <COMPOUND>
Cn1c(=O)c2cc(S(=O)(=O)NC3(C)CC3)ccc2n(Cc2cnc(Cl)s2)c1=O

>  <IC50, nM>
151

$$$$
>  <COMPOUND>
Cc1cc(Cn2ncc3ccc(S(=O)(=O)NC4(C)CC4)cc3c2=O)on1

>  <IC50, nM>
1270

$$$$
>  <COMPOUND>
CC1(NS(=O)(=O)c2ccc3nc(N4CCCC4)[nH]c(=O)c3c2)CC1

>  <IC50, nM>
9440

$$$$
>  <COMPOUND>
Cn1c(=O)c2cc(S(=O)(=O)NC3(C)CC3)ccc2n(CCC2CC2)c1=O

>  <IC50, nM>
1170

$$$$
>  <COMPOUND>
CN(C)C(=O)Cn1c(=O)n(Cc2cnn(C)c2)c(=O)c2cc(S(=O)(=O)NC3(C)CC3)ccc21

>  <IC50, nM>
418

$$$$
>  <COMPOUND>
Cn1c(=O)c2cc(S(=O)(=O)NC3(C)CC3)ccc2n(CC#N)c1=O

>  <IC50, nM>
4410

$$$$
>  <COMPOUND>
C#CCn1c(=O)n(CC#N)c(=O)c2cc(S(=O)(=O)NC3(C)CC3)ccc21

>  <IC50, nM>
245

$$$$
>  <COMPOUND>
C#CCn1c(=O)n(Cc2cc(C)no2)c(=O)c2cc(S(=O)(=O)NC3(C)CC3)ccc21

>  <IC50, nM>
105

$$$$

Cited source: patent US10239843B2
